study-target: T1, hGARP-proTGFβ1 (human, UniProt Q14392 18-627; P01137 30-390, limits assumed)
T1 construct: LLC as m1; Same id used for the cell-surface complex in reporter assays; also called human GARP-proTGFβ1 complex; GARP-ProTGFb1
T1 sequence (Q14392 18-627 limits assumed, chain 1 of 2): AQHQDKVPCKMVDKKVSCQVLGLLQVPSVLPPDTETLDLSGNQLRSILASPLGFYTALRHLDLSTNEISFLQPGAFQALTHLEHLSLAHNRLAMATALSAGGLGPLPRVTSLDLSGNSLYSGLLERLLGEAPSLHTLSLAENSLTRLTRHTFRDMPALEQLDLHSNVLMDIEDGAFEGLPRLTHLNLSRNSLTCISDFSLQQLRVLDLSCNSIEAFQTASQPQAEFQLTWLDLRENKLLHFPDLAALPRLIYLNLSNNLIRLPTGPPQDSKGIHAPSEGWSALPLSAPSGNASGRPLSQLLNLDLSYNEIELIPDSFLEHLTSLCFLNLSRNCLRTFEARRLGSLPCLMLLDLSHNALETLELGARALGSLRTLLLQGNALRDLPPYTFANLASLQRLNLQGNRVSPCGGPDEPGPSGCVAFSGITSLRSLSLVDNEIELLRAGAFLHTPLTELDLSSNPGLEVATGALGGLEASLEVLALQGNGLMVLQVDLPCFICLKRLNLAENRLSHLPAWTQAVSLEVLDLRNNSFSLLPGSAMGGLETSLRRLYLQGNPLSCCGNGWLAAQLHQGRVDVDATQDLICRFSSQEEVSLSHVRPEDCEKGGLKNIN
T1 sequence (P01137 30-390 limits assumed, chain 2 of 2): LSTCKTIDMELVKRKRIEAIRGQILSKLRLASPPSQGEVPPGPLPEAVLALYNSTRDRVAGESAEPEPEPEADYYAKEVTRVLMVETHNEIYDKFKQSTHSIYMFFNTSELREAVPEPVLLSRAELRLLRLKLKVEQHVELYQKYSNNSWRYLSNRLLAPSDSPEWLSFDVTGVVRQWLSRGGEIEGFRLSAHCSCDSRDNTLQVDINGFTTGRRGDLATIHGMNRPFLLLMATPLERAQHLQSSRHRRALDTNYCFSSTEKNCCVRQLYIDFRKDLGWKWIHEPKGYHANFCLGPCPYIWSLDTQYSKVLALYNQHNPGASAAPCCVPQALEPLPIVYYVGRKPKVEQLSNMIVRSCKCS
experimental-protocol: MSD-SET, hIgG4
Collected pKd values appear next to each entry.
The meaning of pKd here: minus log10 of the concentration in molar units.

binder | observed
Ab26 (antibody, V domains shown) VH: EVQLVESGGGLVQPGGSLRLSCAASGFTFSSFSMDWVRQAPGKGLEWVSYISPDASTIYYADSVKGRFTISRDNAKNTLYLQMNSLRAEDTAVYYCARGVLDYGDMLDPWGQGTLVTVSS VL: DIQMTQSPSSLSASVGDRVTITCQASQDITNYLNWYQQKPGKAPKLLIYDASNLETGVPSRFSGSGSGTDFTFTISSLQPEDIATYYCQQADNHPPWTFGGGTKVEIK | 10.85

Exam item: Using the record for Ab31 (antibody, V domains shown) VH: EVQLVESGGGLVQPGGSLRLSCAASGFTFSSFSMDWVRQAPGKGLEWVSYISPDASTIYYADSVKGRFTISRDNAKNTLYLQMNSLRAEDTAVYYCARAVLDYGDMLDPWGQGTLVTVSS VL: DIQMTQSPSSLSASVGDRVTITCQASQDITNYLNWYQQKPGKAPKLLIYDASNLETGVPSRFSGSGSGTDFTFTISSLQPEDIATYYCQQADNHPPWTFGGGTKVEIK , report its pKd.
Marked response: 10.72
